Sourced from ChEMBL document CHEMBL4689842

Growth Rate values, listed per item
- Test system: Fibroblast
- TEST NAME: Incucyte cell viability with human fibroblast; note: filed as whole numbers so only -1 and 0 and 1 occur
- Type: toxicity, cell-based
- PROTOCOL CONDITIONS: 6 h, 10 µM, compound concentration 10 uM, replicate number 1, timepoint 6 hours

{"MOLECULE": "CCC(=O)N1CC[C@H](Nc2ncnc3c2CN(c2cnc(OC)c(C(F)(F)F)c2)CC3)C1 [LENIOLISIB]", "Growth Rate": 0}
{"MOLECULE": "Cc1nc2sccn2c(=O)c1CCN1CCC(=C(c2ccc(F)cc2)c2ccc(F)cc2)CC1 [RITANSERIN]", "Growth Rate": 0}
{"MOLECULE": "CC(C)Oc1ccc(C(=O)N[C@H](CNC(=O)CN(C)C)Cc2ccc(-c3cn4cccc([C@H](C)O)c4n3)cc2)cc1Cl [GSK-923295A]", "Growth Rate": 0}
{"MOLECULE": "O=C(O)COc1cccc(CN(Cc2ccc(-n3cccn3)cc2)S(=O)(=O)c2cccnc2)c1", "Growth Rate": 0}
{"MOLECULE": "CN1C(=O)[C@@H](N2CCc3c(nn(Cc4ccccc4)c3Br)C2=O)COc2ccccc21 [TP-030-2]", "Growth Rate": 0}
{"MOLECULE": "CS(=O)(=O)N1CCN(Cc2cc3nc(-c4cccc5[nH]ncc45)nc(N4CCOCC4)c3s2)CC1 [PICTILISIB]", "Growth Rate": 0}
{"MOLECULE": "O=C(O)CC1CCC2(CC1)CCN(c1cc(OC(F)(F)F)ccc1Cl)CC2", "Growth Rate": 1}
{"MOLECULE": "Cc1cc(C)c(N)c(C#Cc2cccc(F)c2)n1.Cl", "Growth Rate": 0}
{"MOLECULE": "COc1ccc(COc2ccc(Cc3cnc(N)nc3N)cc2OC)cc1 [GW632580X]", "Growth Rate": 1}
{"MOLECULE": "CS(=O)(=O)c1cc(C2(NC(=O)c3cncc4c3cnn4-c3ccc(F)cc3)CC2)ccn1 [BI 639667]", "Growth Rate": 1}
{"MOLECULE": "COc1cc(N2CCC(N(C)C)CC2)ccc1Nc1ncc(Cl)c(Nc2ccccc2P(C)(C)=O)n1", "Growth Rate": 1}
{"MOLECULE": "O=C(Nc1cccnc1)c1cc(-c2ccnc(F)c2)ccc1OCc1ccccc1", "Growth Rate": 0}
{"MOLECULE": "CCCCc1nc(Cl)c(CO)n1Cc1ccc(-c2ccccc2-c2nn[nH]n2)cc1 [LOSARTAN]", "Growth Rate": 1}
{"MOLECULE": "COc1ccc(NS(=O)(=O)c2sc3ccc(Cl)cc3c2C)cc1N1CCNCC1.Cl", "Growth Rate": 1}
{"MOLECULE": "CCCCN(CCCC)C(=O)CN1C[C@@H](c2cc(OC)c3c(c2)OCO3)[C@H](C(=O)O)[C@H]1CC(C)(C)CCC.Cl", "Growth Rate": 0}
{"MOLECULE": "Cc1cnc(-c2cc(Cl)ccc2F)cc1-n1c(=O)n(CC(N)=O)c2cnccc21 [TP-008]", "Growth Rate": 1}
{"MOLECULE": "Cc1cc(SCc2sc(-c3ccc(C(F)(F)F)c(F)c3)nc2C)ccc1OCC(=O)O", "Growth Rate": 1}
{"MOLECULE": "NS(=O)(=O)c1cc(NC(=O)C2(c3ccccc3Cl)CC2)ccc1Oc1cccc(Cl)c1 [BAY-207]", "Growth Rate": 1}
